Attribute: pIC50
# Test system: human CXCR3 (N-delta 4) (Homo sapiens)
# Construct: CD8 leader (N); Flag; expressed in transfected cells; membranes prepared
# Test method notes: Human CXCR3 (N-delta 4) Scintillation Proximity Assay (SPA), [125I] IP-10 binding to Ba/F3-hCXCR3 membranes
# Study conditions: IC50 rating, Table 1; read-out: IC50
pIC50: −log10 of the molar value.

These recorded examples may help you get a feel for the data.
CC[C@H]1CN(c2nc(N)c(C(N)=O)nc2Cl)CCN1C1CCN(Cc2ccc(Cl)cc2C(NC(C)=O)C(N)=O)CC1 (some centres unmarked) | < 7.00
CC[C@H]1CN(c2nc(N)c(C(=O)N3CCN(S(C)(=O)=O)CC3)nc2Cl)CCN1C1CCN(Cc2ccc(Cl)cc2)CC1 | < 7.00
CC[C@H]1CN(c2ncc(C(=O)NC3CC3)nc2C)CCN1C1CCN(Cc2ccc(Cl)cc2)CC1 | > 7.60
CC[C@H]1CN(c2ncc(C(=O)NC3CC3)nc2C)CCN1C1CCN(C(=O)c2ccc(C)cc2)CC1 | > 7.60
CC[C@H]1CN(c2nc(N)c(C(N)=O)nc2Cl)CCN1C1CCN(Cc2ccc(Cl)cc2C(C)CO)CC1 (some centres unmarked) | > 7.60
CC[C@H]1CN(c2nc(N)c(C(=O)NCCO)nc2Cl)CCN1C1CCN(Cc2ccc(Cl)cc2OCCNC(=O)C(C)(C)C)CC1 | > 7.60
CC[C@H]1CN(c2nc(N)c(C(=O)NCCO)nc2Cl)CCN1C1CCN(C(C(=O)O)c2ccc(Cl)cc2)CC1 (some centres unmarked) | 7.00 to 7.60
CC[C@H]1CN(c2nc(N)c(C(=O)NCCO)nc2Cl)CCN1C1CCN(C(CCN)c2ccc(Cl)cc2)CC1 (some centres unmarked) | < 7.00
COC(=O)c1nc(Cl)c(N2C[C@H](C)N(C3CCN(Cc4ccc(Cl)cc4F)CC3)C[C@H]2C)nc1N | < 7.00
CC[C@H]1CN(c2nc(N)c(C(N)=O)nc2Cl)CCN1C1CCN(Cc2ccc(Cl)cc2NC(=O)C(C)O)CC1 (some centres unmarked) [compound 377] | 7.00 to 7.60

API: the following record is the query input.
Task: Please report the recorded pIC50 for CC[C@H]1CN(c2nc(N)c(C(=O)NCCNS(N)(=O)=O)nc2Cl)CCN1C1CCN(Cc2ccc(Cl)cc2C#N)CC1 .
Output: > 7.60

----------
# Test system: human CXCR3 (N-delta 4) (Homo sapiens, UniProt P49682)
# Construct: CD8 leader (N); Flag; expressed in transfected cells; membranes prepared
# Sequence (P49682 5-368 limits assumed): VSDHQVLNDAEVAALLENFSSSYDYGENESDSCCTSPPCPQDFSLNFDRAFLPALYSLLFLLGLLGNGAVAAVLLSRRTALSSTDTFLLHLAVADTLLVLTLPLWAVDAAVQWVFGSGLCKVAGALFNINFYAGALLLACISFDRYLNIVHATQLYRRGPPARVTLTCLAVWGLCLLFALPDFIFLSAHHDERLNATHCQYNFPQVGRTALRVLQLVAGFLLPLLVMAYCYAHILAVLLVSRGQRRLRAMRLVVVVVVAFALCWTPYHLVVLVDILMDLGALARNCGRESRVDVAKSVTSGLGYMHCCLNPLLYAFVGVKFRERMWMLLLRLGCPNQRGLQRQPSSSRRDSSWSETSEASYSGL
# Test method notes: Human CXCR3 (N-delta 4) Scintillation Proximity Assay (SPA), [125I] IP-10 binding to Ba/F3-hCXCR3 membranes
# Study conditions: IC50 rating, Table 1; read-out: IC50
pIC50: −log10 of the molar value.
Quantity name: pIC50

These recorded examples may help you get a feel for the data.
CC[C@H]1CN(c2nc(N)c(C(=O)NC)nc2Cl)CCN1C1CCN(C(=O)C2Cc3ccccc3C2)CC1 [compound 368] | < 7.00
CCNC(=O)NCCC(c1ccc(Cl)cc1)N1CCC(N2CCN(c3nc(N)c(C(=O)NCCO)nc3Cl)C[C@@H]2CC)CC1 (stereo partly shown) [compound 148] | > 7.60
CC[C@H]1CN(c2nc(N)c(C(N)=O)nc2Cl)CCN1C1CCN(Cc2ccc(Cl)cc2CC#N)CC1 [compound 33] | 7.00 to 7.60
CC[C@H]1CN(c2nc(N)c(C(=O)NCCO)nc2Cl)CCN1C1CCN([C@@H](C(=O)O)c2ccc(Cl)cc2)CC1 [compound 177] | 7.00 to 7.60
CC[C@H]1CN(c2nc(N)c(C(=O)OC)nc2Cl)CCN1C1CCN(Cc2ccc(Cl)cc2OCCNC(=O)NC(C)(C)C)CC1 [compound 297] | 7.00 to 7.60
CC[C@H]1CN(c2nc(N)c(C(N)=O)nc2Cl)CCN1C1CCN(Cc2ccc(OC(F)(F)F)cc2)CC1 [compound 9] | > 7.60

Task: # get_value(readout= pIC50, system= human CXCR3 (N-delta 4) (Homo sapiens, UniProt P49682)) for CC[C@H]1CN(c2nc(N)c(C(=O)NCCO)nc2Cl)CCN1C1CCN(Cc2ccc(OC(F)(F)F)cc2OCCCCO)CC1 [compound 119]
Output: > 7.60

----------
# Test system: human CXCR3 (N-delta 4) (Homo sapiens, UniProt P49682)
# Construct: CD8 leader (N); Flag; expressed in transfected cells; membranes prepared
# Sequence (P49682 5-368 limits assumed): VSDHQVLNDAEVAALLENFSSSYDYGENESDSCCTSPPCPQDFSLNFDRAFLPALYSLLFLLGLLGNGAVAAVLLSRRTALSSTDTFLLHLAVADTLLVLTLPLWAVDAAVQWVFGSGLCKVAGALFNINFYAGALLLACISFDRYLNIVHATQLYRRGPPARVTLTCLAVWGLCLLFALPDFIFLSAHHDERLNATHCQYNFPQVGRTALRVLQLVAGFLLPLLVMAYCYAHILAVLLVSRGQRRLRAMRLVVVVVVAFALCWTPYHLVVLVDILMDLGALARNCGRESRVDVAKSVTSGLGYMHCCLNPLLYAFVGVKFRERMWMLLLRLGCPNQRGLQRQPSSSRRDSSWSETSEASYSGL
# Test method notes: Human CXCR3 (N-delta 4) Scintillation Proximity Assay (SPA), [125I] IP-10 binding to Ba/F3-hCXCR3 membranes
# Study conditions: IC50 rating, Table 1; read-out: IC50
Quantity name: IC50

These recorded examples may help you get a feel for the data.
CC[C@H]1CN(c2nc(N)c(C(=O)NCCO)nc2Cl)CCN1C1CCN(C(=O)c2ccc(OC(F)(F)F)cc2O)CC1 | > 100 nM
CC[C@H]1CN(c2nc(N)c(C(=O)NCCO)nc2Cl)CCN1C1CCN([C@H](C(=O)OC)c2ccc(C#N)cc2)CC1 | > 100 nM
CC[C@H]1CN(c2nc(N)c(C(=O)NC3CCOC3=O)nc2Cl)CCN1C1CCN(Cc2ccc(Cl)cc2)CC1 (stereo partly shown) [compound 278] | < 25 nM

API: the following record is the query input.
Task: Please report the recorded IC50 for CC[C@H]1CN(c2nc(N)c(C(=O)NCCS(C)(=O)=O)nc2Cl)CCN1C1CCN(Cc2ccc(Cl)cc2)CC1 [compound 100] .
Output: < 25 nM

----------
# Test system: human CXCR3 (N-delta 4) (Homo sapiens)
# Construct: CD8 leader (N); Flag; expressed in transfected cells; membranes prepared
# Sequence (P49682 5-368 limits assumed): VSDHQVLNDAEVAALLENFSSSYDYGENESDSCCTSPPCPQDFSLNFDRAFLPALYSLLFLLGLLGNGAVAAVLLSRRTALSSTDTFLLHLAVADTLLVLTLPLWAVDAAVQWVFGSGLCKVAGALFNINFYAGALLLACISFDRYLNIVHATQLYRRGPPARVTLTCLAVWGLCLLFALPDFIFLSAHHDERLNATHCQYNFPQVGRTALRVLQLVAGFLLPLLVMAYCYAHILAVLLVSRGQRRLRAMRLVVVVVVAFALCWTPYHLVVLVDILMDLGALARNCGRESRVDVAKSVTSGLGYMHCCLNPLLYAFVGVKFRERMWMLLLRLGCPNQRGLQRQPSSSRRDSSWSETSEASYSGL
# Test method notes: Human CXCR3 (N-delta 4) Scintillation Proximity Assay (SPA), [125I] IP-10 binding to Ba/F3-hCXCR3 membranes
# Study conditions: IC50 rating, Table 1; read-out: IC50
pIC50: −log10 of the molar value.
Attribute: pIC50

CC[C@H]1CN(c2nc(N)c(C(=O)N[C@@H]3CCN(C(=O)OC(C)(C)C)C3)nc2Cl)CCN1C1CCN(Cc2ccc(Cl)cc2)CC1 | < 7.00
CC[C@H]1CN(c2nc(N)c(C(=O)NCCO)nc2Cl)CCN1C1CCN(Cc2ccc(Cl)cc2N2CC[C@@H](O)C2)CC1 | > 7.60
CC[C@H]1CN(c2nc(N)c(C(=O)NC)nc2Cl)CCN1C1CCN(Cc2ccc(-n3cncn3)cc2)CC1 | 7.00 to 7.60
CC[C@H]1CN(c2nc(N)c(C(=O)NC(=N)NC)nc2Cl)CCN1C1CCN(Cc2ccc(OC(F)(F)F)cc2)CC1 | > 7.60
CC[C@H]1CN(c2nc(N)c(C(=O)OC)nc2Cl)CCN1C1CCN(C(=O)c2ccc(Cl)cc2C(C)C#N)CC1 (stereo partly shown) | < 7.00
CC[C@H]1CN(c2nc(N)c(C(=O)NCCO)nc2Cl)CCN1C1CCN(C(=O)c2ccc(Cl)cc2CCNC(C)=O)CC1 | < 7.00

API: the following record is the query input.
Task: Please report the recorded pIC50 for CC[C@H]1CN(c2nc(N)c(C(=O)NC)nc2Cl)CCN1C1CCN(CCCCc2ccc(Cl)cc2)CC1 .
Output: 7.00 to 7.60
